Tested on: HEK-293T
protocol-notes: Incucyte cell viability with HEK293T; also: unitless GR value; below 1 slowed growth and below 0 cell loss
Type: toxicity, cell-based
assay-context: human, 12 h, 10 µM, compound concentration 10 uM, replicate number 1, timepoint 12 hours
// values below are reported Growth Rate
Write the number on its own, no unit after it.

- CSCC[C@H](NC=O)C(=O)N[C@@H](CC(C)C)C(=O)N[C@@H](Cc1ccccc1)C(=O)O: 1

# molecule `NC(=O)c1cc2c(-c3ccc(C(=O)NCc4ccnc(Cl)c4)s3)cccc2s1` ; its Growth Rate = -0.09

# molecule `OC[C@H]1O[C@@H](n2cnc3c(NC4CCCC4)ncnc32)[C@H](O)[C@@H]1O` ; its Growth Rate = 0.81

###

Tested on: HEK-293T
protocol-notes: Incucyte cell viability with HEK293T; also: unitless GR value; below 1 slowed growth and below 0 cell loss
Assay type: toxicity, cell-based
assay-context: human, 18 h, 10 µM, compound concentration 10 uM, replicate number 2, timepoint 18 hours
observable: Growth Rate
Write the number on its own, no unit after it.

Below: 5 compounds and their reported Growth Rate.
* CC(=O)c1ccc2c(c1)[C@@H]1C=CC[C@@H]1[C@H](c1cc3c(cc1Br)OCO3)N2 | -0.06
* C[C@@H]1CC(=O)Nc2cccc(-c3ccc4c(c3)c(-c3cnn(C)c3)nn4C)c2N1 | 0.45
* CN1CCN(c2nc3cc(C(F)(F)F)ccc3n3cccc23)CC1.O=C(O)/C=C\C(=O)O.O=C(O)/C=C\C(=O)O | 0.7
* CC(C)(C)c1ccc(CSc2cnn(C(C)(C)C)c(=O)c2Cl)cc1 | 0.2
* C[C@@](Cc1c[nH]c2ccccc12)(NC(=O)Nc1ccc([N+](=O)[O-])cc1)C(=O)NCC1(c2ccccn2)CCCCC1 | -0.15

# compound `CN1CCN(c2ccc(Nc3c4ccccc4nc4ccccc34)cc2)CC1.Cl.Cl.O` ; its Growth Rate = -0.61

# compound `O=C(N[C@@H]1CC[C@@H](c2cccc(F)c2F)CN(CC(F)(F)F)C1=O)N1CCC(n2c(=O)[nH]c3ncccc32)CC1` ; its Growth Rate = 0.98

# compound `Cc1nc(C#Cc2cccnc2)cs1.Cl` ; its Growth Rate = 0.94

# compound `OCCCNc1cc(-c2ccnc(Nc3cccc(Cl)c3)n2)ccn1` ; its Growth Rate = -0.46

# compound `COc1ccc2nc3ccc(OC)cc3c(SCCCN)c2c1.Cl` ; its Growth Rate = 0.22

# compound Cl.Cl.OCCOCCN1CCN(C(c2ccccc2)c2ccc(Cl)cc2)CC1 (stereo not drawn) [HYDROXYZINE HYDROCHLORIDE] ; its Growth Rate = 0.39

# compound `CCCCC[C@H](O)/C=C/[C@H]1[C@H](O)CC(=O)[C@@H]1CCCCCCC(=O)O` ; its Growth Rate = 0.94

# compound `Nc1nc(-c2ccco2)c2cnn(Cc3ccccc3F)c2n1` ; its Growth Rate = -0.05

###

// values below are reported Growth Rate
Test system: U2OS
protocol-notes: Incucyte cell viability with U2OS; also: unitless GR value; below 1 slowed growth and below 0 cell loss
Format: toxicity, cell-based
assay-context: human, 6 h, 10 µM, compound concentration 10 uM, replicate number 1, timepoint 6 hours
Write the number on its own, no unit after it.

• CNC[C@H](O)c1ccc(O)c(O)c1 [EPINEPHRINE] = 0.63
• NCCc1cn(S(=O)(=O)c2c(Cl)nc3sccn23)c2ccccc12.O=C(O)C(=O)O = -0.18
• Cc1cc(CN)cc(C)c1-c1ncn(C)c1-c1cncn1C = 0.65
• Cc1ccccc1C(=O)Nc1ccc(C(=O)N2CCCC(N(C)C)c3ccccc32)cc1.Cl (stereo not given) = 0.05

Continue with the molecule presented below.
U2OS Growth Rate of `CCc1nnc(NS(=O)(=O)c2ccc(NC(=S)NC(=O)/C=C/c3ccc(F)cc3)cc2)s1` is 0.55
